system: S6 (mTOR marker); test: S6 phosphorylation in L6 skeletal muscle cells (western blotting); assay type: cell-based; conditions: 100 nM, 1 hour
assay endpoint: phosphorylation of S6 protein, increase (%)
Numeric only. Scale: %

Qu. # return recorded phosphorylation of S6 protein, increase for entry AQSREQLAALKK (listed as Homo sapiens) [No. 5]
Ans. 494

Qu. # return recorded phosphorylation of S6 protein, increase for entry EQAEEERYFR (listed as Homo sapiens) [No. 4]
Ans. 224

Qu. # return recorded phosphorylation of S6 protein, increase for entry EQAEEER (listed as Homo sapiens) [No. 2]
Ans. 365

Qu. # return recorded phosphorylation of S6 protein, increase for entry VDRGAGSIREAGGAFGKREQAEEERYFR (listed as Homo sapiens) [No. 8]
Ans. 414
